Biological target: 5-hydroxytryptamine receptor 2C (Homo sapiens, UniProt P28335)
Sequence (P28335 whole entry): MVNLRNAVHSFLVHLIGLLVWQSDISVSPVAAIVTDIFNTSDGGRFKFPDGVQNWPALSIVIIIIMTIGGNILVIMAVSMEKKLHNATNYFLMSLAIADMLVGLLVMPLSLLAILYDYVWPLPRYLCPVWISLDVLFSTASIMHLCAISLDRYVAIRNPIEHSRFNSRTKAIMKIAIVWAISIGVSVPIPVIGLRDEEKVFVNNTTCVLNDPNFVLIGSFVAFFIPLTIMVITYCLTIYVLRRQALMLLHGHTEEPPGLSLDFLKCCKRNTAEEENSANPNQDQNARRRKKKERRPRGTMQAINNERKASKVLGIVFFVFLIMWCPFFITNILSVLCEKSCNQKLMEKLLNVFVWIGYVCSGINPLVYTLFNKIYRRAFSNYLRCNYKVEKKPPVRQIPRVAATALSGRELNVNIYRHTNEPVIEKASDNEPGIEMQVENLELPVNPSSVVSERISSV
Assay: Positive allosteric modulation of 5-HT2C receptor (unknown origin) assessed as increase in 5-HT-induced displacement of [3H]mesulergine by measuring 5-HT Ki at 20 uM (Rvb = 159 nM)

cpd-smiles: CCCCCCCCCCC[C@@H]1CCN[C@H](C(=O)N[C@@H]([C@H]2O[C@H](SC)[C@H](O)[C@@H](O)[C@H]2O)[C@H](C)Cl)C1
Ki (nM): 6.4

---

Target: Muscarinic acetylcholine receptor M1 (Homo sapiens, UniProt P11229)
Sequence (P11229 whole entry): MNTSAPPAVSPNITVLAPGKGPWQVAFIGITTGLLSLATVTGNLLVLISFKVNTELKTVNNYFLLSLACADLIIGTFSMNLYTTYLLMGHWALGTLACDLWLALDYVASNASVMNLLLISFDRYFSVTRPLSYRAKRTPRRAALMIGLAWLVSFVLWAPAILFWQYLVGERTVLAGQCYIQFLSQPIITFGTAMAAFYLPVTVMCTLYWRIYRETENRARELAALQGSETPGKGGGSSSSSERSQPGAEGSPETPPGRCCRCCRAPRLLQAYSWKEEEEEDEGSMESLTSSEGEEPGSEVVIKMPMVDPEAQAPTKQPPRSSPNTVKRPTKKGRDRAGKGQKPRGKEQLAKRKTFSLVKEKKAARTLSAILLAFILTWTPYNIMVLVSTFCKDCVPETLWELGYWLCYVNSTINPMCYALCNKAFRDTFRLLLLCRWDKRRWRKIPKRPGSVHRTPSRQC
Test: Positive allosteric modulation of M1 AchR (unknown origin)
pEC50: −log10 of the molar value.

cpd-smiles: Cn1cc(-c2ccc(Cn3cc(C(=O)N[C@H]4CCCC[C@@H]4O)c4c(F)cc(F)cc43)cn2)cn1
system-name: Muscarinic acetylcholine receptor M1 (Homo sapiens, UniProt P11229)
pEC50: 6.68
